Reported inhibition zone (IZ) values for the following compounds.
# System: Staphylococcus aureus
# procedure text: Antimicrobial activity against Staphylococcus aureus MTCC 96 after by agar well diffusion method; further: test concentration or dose not given here
Put your answer as a value accompanied by its unit after it.

Give the measured inhibition zone (IZ) for `O=[N+]([O-])c1ccc(-c2nn(-c3ccc([N+](=O)[O-])cc3)cc2-c2nnc(-c3ccccc3)o2)cc1` 22.6 mm

Could you please provide reported inhibition zone (IZ) for `O=[N+]([O-])c1ccc(-n2cc(-c3nnc(-c4ccccc4)o3)c(-c3ccc(F)cc3)n2)cc1` ? Thanks! 21.3 mm

Output measured inhibition zone (IZ) for this item: `Cc1ccc(-c2nn(-c3ccccc3)cc2-c2nnc(-c3ccccc3)o2)cc1` 18.3 mm

// Input: `c1ccc(-c2nnc(-c3cn(-c4ccccc4)nc3-c3ccccc3)o2)cc1` . Output its inhibition zone (IZ) only. 20.3 mm

# return recorded inhibition zone (IZ) for input `COc1ccc(-c2nn(-c3ccc([N+](=O)[O-])cc3)cc2-c2nnc(-c3ccccc3)o2)cc1` 24.3 mm
